Cited source for all entries: patent US6759384B1

SYSTEM_NAME: bovine pancreatic trypsin (Bos taurus)
Construct: purchased Sigma Type XIII, TPCK treated; host or cells: bovine pancreas
Sequence (P00760 24-246): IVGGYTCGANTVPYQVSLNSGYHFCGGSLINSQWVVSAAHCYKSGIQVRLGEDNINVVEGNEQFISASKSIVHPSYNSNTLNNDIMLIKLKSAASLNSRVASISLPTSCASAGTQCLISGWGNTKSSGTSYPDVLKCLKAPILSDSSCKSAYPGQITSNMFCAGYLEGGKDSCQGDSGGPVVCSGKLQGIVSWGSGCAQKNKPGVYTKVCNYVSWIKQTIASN
RUN_DESCRIPTION: Trypsin chromogenic assay
Assay type: biochemical
SETUP_CONDITIONS: Table 2; * no significant inhibition at the highest concentration tested
MEASURE: Ki

Specify Ki for YIRLAAET [Ac-Y-I-R-L-A-A-E-T, Ac-Y-I-R-L-A-A-E-T (SEQ ID NO:9)] and stop. > 200 µM

###

RUN_DESCRIPTION: Ex vivo dilute prothrombin time assay after iv administration to rats
SETUP_CONDITIONS: rat, in vivo, time at which approximately 50% of the initial anticoagulant activity remains in plasma, read-out: T1/2 Rat ex vivo
Non-standard residues stand in square brackets, D forms with d. Residues, ends and D or L forms follow the SMILES beside them. Chg = N[C@H](C(=O)O)C1CCCCC1
MEASURE: half-life (min)
Give your result in min as a bare value.

Specify half-life for CC(=O)N[C@@H](Cc1ccc(O)cc1)C(=O)N[C@H](C(=O)N[C@@H](CCCNC(=N)N)C(=O)N[C@@H](CC(C)C)C(=O)N1CCC[C@H]1C(N)=O)C1CCCCC1 [Ac—Y—Chg—R—L—P—NH2, Ac-Tyr-Chg-Arg-Leu-Pro-NH2] (Ac-Y[Chg]RLP-NH2) and stop. 5
